Measured values drawn from the supplement of paper PMC4862054 for this set.

Listing: normalised response of selected molecules
# System: MDA-MB-436
# TEST DETAILS: normalised response (% of control), CellTiter-Glo; higher = more viable cells (100 = DMSO, 0 = benzethonium chloride kill control)
# SETTINGS: incubation time: 72 h
Write it as a number; the unit % goes unstated.

Completed entries (count: 2):
N[C@@H](Cc1ccc(N(CCCl)CCCl)cc1)C(=O)O [Melphalan] (12.5 nM) : 103
O=C(c1cc(Cc2n[nH]c(=O)c3ccccc23)ccc1F)N1CCN(C(=O)C2CC2)CC1 [Olaparib] (1 nM) : 104

### Prompt Consider the molecule CC(C)C(=O)Nc1ccc([N+](=O)[O-])c(C(F)(F)F)c1 [Flutamide] (1 nM) and give its measured normalised response.
### Response 103

### Prompt Another molecule: NC(=O)NO [Hydroxyurea] (10 nM)
### Response 90.1

### Prompt Also, Cc1c(N)nc([C@H](CC(N)=O)NC[C@H](N)C(N)=O)nc1C(=O)N[C@H](C(=O)N[C@H](C)[C@@H](O)[C@H](C)C(=O)N[C@H](C(=O)NCCc1nc(-c2nc(C(=O)NCCC[S+](C)C)cs2)cs1)[C@@H](C)O)[C@@H](OC1OC(CO)C(O)C(O)C1OC1OC(CO)C(O)C(OC(N)=O)C1O)c1cnc[nH]1 (some centres not stated) [Bleomycin] (10 nM) please.
### Response 94.2

### Prompt // same read-out, input: CN1CCc2c(c3ccccc3n2Cc2ccc(C(=O)NO)cc2)C1 [Tubastatin A] (10 nM)
### Response 95.2

### Prompt Now try CO[C@H](C(=O)[C@@H](O)[C@@H](C)O)[C@@H]1Cc2cc3cc(O[C@H]4C[C@@H](O[C@@H]5C[C@@H](O)[C@H](O)[C@@H](C)O5)[C@H](O)[C@@H](C)O4)c(C)c(O)c3c(O)c2C(=O)[C@H]1O[C@H]1C[C@@H](O[C@@H]2C[C@@H](O)[C@@H](O[C@@H]3C[C@](C)(O)[C@H](O)[C@@H](C)O3)[C@@H](C)O2)[C@H](O)[C@@H](C)O1 [Plicamycin] (10 nM) .
### Response 101

### Prompt Would you kindly repeat that for NC1(c2ccc(-c3nc4ccn5c(=O)[nH]nc5c4cc3-c3ccccc3)cc2)CCC1 [MK-2206] (100 nM) ?
### Response 108

----------
# System: Hs578T
# SETTINGS: 72 h
Recorded EC50, CellTiter-Blue viability values for a group of molecules are listed next.
Respond numerically; units are nM and should not be typed.

Field: example entries. Status: answers known.
CC(C)C[C@H](NC(=O)[C@H](CCc1ccccc1)NC(=O)CN1CCOCC1)C(=O)N[C@@H](Cc1ccccc1)C(=O)N[C@@H](CC(C)C)C(=O)[C@@]1(C)CO1 : 5.47
COc1cc2c(Oc3ccc(NC(=O)C4(C(=O)Nc5ccc(F)cc5)CC4)cc3F)ccnc2cc1OCCCN1CCOCC1 : 756
CO[C@H](C(=O)[C@@H](O)[C@@H](C)O)[C@@H]1Cc2cc3cc(O[C@H]4C[C@@H](O[C@@H]5C[C@@H](O)[C@H](O)[C@@H](C)O5)[C@H](O)[C@@H](C)O4)c(C)c(O)c3c(O)c2C(=O)[C@H]1O[C@H]1C[C@@H](O[C@@H]2C[C@@H](O)[C@@H](O[C@@H]3C[C@](C)(O)[C@H](O)[C@@H](C)O3)[C@@H](C)O2)[C@H](O)[C@@H](C)O1 : 30.8

Kindly review the next molecule as well.
### Prompt I am curious: what EC50, CellTiter-Blue viability value has been reported for Cc1c(N)nc([C@H](CC(N)=O)NC[C@H](N)C(N)=O)nc1C(=O)N[C@H](C(=O)N[C@H](C)[C@@H](O)[C@H](C)C(=O)N[C@H](C(=O)NCCc1nc(-c2nc(C(=O)NCCC[S+](C)C)cs2)cs1)[C@@H](C)O)[C@@H](OC1OC(CO)C(O)C(O)C1OC1OC(CO)C(O)C(OC(N)=O)C1O)c1cnc[nH]1 (some centres undefined) ?
### Response 69.2

----------
# Test system: DU-4475
# TEST DETAILS: normalised viability (% of control), CellTiter-Blue; higher = more viable cells (100 = DMSO, 0 = benzethonium chloride kill control)
# SETTINGS: incubation time: 72 h
REPORTED METRIC: normalised viability (%)
Just the number please, in %, no unit attached.

Examples with their reported normalised viability follow.
CC(C)C(=O)Nc1ccc([N+](=O)[O-])c(C(F)(F)F)c1 [Flutamide] (1 nM) : 100
NC(=O)c1cccc2cn(-c3ccc([C@@H]4CCCNC4)cc3)nc12 [MK-4827] (1 nM) : 102
CC[C@@H]1C(=O)N(C)c2cnc(Nc3ccc(C(=O)N[C@H]4CC[C@H](N5CCN(CC6CC6)CC5)CC4)cc3OC)nc2N1C(C)C [Volasertib] (0.1 nM) : 103

### Prompt Requested read-out normalised viability, target or system DU-4475, entry CCN(CC)CCOc1ccc(C(=C(Cl)c2ccccc2)c2ccccc2)cc1 [Clomifene] (1 nM)
### Response 92.8

### Prompt Try CN1CCN(c2nc(C3=C(c4c[nH]c5ccccc45)C(=O)NC3=O)c3ccccc3n2)CC1 [Sotrastaurin] (1 nM) next.
### Response 104

### Prompt Then this compound: N[C@@H](Cc1ccc(N(CCCl)CCCl)cc1)C(=O)O [Melphalan] (0.099 nM)
### Response 99.8

### Prompt Please do the same for C[C@@H]1C[C@H]2[C@@H]3CCC4=CC(=O)C=C[C@]4(C)[C@@]3(F)[C@@H](O)C[C@]2(C)[C@@]1(O)C(=O)CO [Dexamethasone] (1 nM) as well.
### Response 96.6

### Prompt Now consider CC/C(=C(\c1ccccc1)c1ccc(OCCN(C)C)cc1)c1ccccc1 [Tamoxifen] (1 nM) .
### Response 104

----------
# Test system: HCC1143
# TEST DETAILS: normalised response (% of control), CellTiter-Glo; higher = more viable cells (100 = DMSO, 0 = benzethonium chloride kill control)
# SETTINGS: incubation time: 72 h
Measured normalised response, listed per entry for reference.
Output spec: scalar in %, unitless text.

Below: 2 molecules and their reported normalised response.
COc1cc2c(Oc3ccc(NC(=O)C4(C(=O)Nc5ccc(F)cc5)CC4)cc3F)ccnc2cc1OCCCN1CCOCC1 [Foretinib] (100 nM) : 93.8
CN1CCN(c2nc(C3=C(c4c[nH]c5ccccc45)C(=O)NC3=O)c3ccccc3n2)CC1 [Sotrastaurin] (1000 nM) : 92.5

### Prompt // fetch HCC1143 normalised response for Cc1c(N)nc([C@H](CC(N)=O)NC[C@H](N)C(N)=O)nc1C(=O)N[C@H](C(=O)N[C@H](C)[C@@H](O)[C@H](C)C(=O)N[C@H](C(=O)NCCc1nc(-c2nc(C(=O)NCCC[S+](C)C)cs2)cs1)[C@@H](C)O)[C@@H](OC1OC(CO)C(O)C(O)C1OC1OC(CO)C(O)C(OC(N)=O)C1O)c1cnc[nH]1 (stereo partly specified) [Bleomycin] (1000 nM)
### Response 83.1

### Prompt What about NC(=O)NO [Hydroxyurea] (100 nM) ?
### Response 104

### Prompt # iterate: CO[C@H](C(=O)[C@@H](O)[C@@H](C)O)[C@@H]1Cc2cc3cc(O[C@H]4C[C@@H](O[C@@H]5C[C@@H](O)[C@H](O)[C@@H](C)O5)[C@H](O)[C@@H](C)O4)c(C)c(O)c3c(O)c2C(=O)[C@H]1O[C@H]1C[C@@H](O[C@@H]2C[C@@H](O)[C@@H](O[C@@H]3C[C@](C)(O)[C@H](O)[C@@H](C)O3)[C@@H](C)O2)[C@H](O)[C@@H](C)O1 [Plicamycin] (1000 nM)
### Response 101

### Prompt // next record N[C@@H](Cc1ccc(N(CCCl)CCCl)cc1)C(=O)O [Melphalan] (1.25 nM)
### Response 98.7

----------
# normalised viability per record follows
# Test system: HDQ-P1
# TEST DETAILS: normalised viability (% of control), CellTiter-Blue; higher = more viable cells (about 100 = DMSO control)
# SETTINGS: 3 nM; incubation time: 72 h
A number alone suffices; assume %.

Use the examples below as a reference point.
NC1(c2ccc(-c3nc4ccn5c(=O)[nH]nc5c4cc3-c3ccccc3)cc2)CCC1 : 111
CC[C@@H]1C(=O)N(C)c2cnc(Nc3ccc(C(=O)N[C@H]4CC[C@H](N5CCN(CC6CC6)CC5)CC4)cc3OC)nc2N1C(C)C : 84
O=C(O)CC[C@H]1CC[C@@](c2cc(F)ccc2F)(S(=O)(=O)c2ccc(Cl)cc2)CC1 : 96.5
CC/C(=C(\c1ccccc1)c1ccc(OCCN(C)C)cc1)c1ccccc1 : 109
CO[C@H]1C[C@@H]2CC[C@@H](C)[C@@](O)(O2)C(=O)C(=O)N2CCCC[C@H]2C(=O)O[C@H]([C@H](C)C[C@@H]2CC[C@@H](O)[C@H](OC)C2)CC(=O)[C@H](C)/C=C(\C)[C@@H](O)[C@@H](OC)C(=O)[C@H](C)C[C@H](C)/C=C/C=C/C=C/1C : 66.3

### Prompt Please report the recorded normalised viability for Cn1nnc2c(C(N)=O)ncn2c1=O [Temozolomide] .
### Response 95.6

### Prompt Follow-up entry: O=NN(CCCl)C(=O)NC1CCCCC1
### Response 117
